target: HLA-A*30:02; experiment: IEDB peptide-MHC binding, purified MHC/competitive/radioactivity; filed as Kd, often an IC50 or EC50 that approximates it; bounds were set here for any values at or beyond the usual limits of such assays; settings: source organism: Dengue virus 4 Philippines/H241/1956
property label: Kd (nM)
Hi! Could you send only the number? It should be in nM, unit omitted.

Return the recorded Kd value; entry: LLSSTRVPNY
2170

---

molecular target: HLA-A*02:01; experiment: IEDB peptide-MHC binding, purified MHC/competitive/radioactivity; filed as Kd, often an IC50 or EC50 that approximates it; bounds were set here for any values at or beyond the usual limits of such assays; conditions: source organism: Trypanosoma cruzi
property label: pKd
pKd (log units): -log10 of the concentration in mol/L.

Return the recorded pKd value; entry: GLLPLFLLLG
9.81
